Tested on: NCI-H2170
Test: relative viability (nuclei count vs DMSO), 5 days (fraction); higher = more cells survive
Conditions: first compound 4 µM
VALUE_TYPE: relative viability
Response field accepts a number only; no unit should be typed.

- COMPOUND: "COc1cc(N2CCC(C(N)=O)CC2)ccc1Nc1nc(N)c(Cl)c(Nc2ccccc2S(=O)(=O)C(C)C)n1 [HG-5-88-01] + O=C(c1cc(Cc2n[nH]c(=O)c3ccccc23)ccc1F)N1CCN(C(=O)C2CC2)CC1 [Olaparib] (partner 8 µM)"
  VALUE_TYPE: "relative viability"
  QUANTITATIVE_RESULT: 0.545

Now turn to the next compound.
Form field relative viability, entry C[C@@H]1CN(CC(=O)Nc2ccc3c(c2)Cc2cccc(-c4cc(=O)cc(N5CCOCC5)o4)c2S3)C[C@H](C)O1 + CCNC(=O)c1noc(-c2cc(C(C)C)c(O)cc2O)c1-c1ccc(CN2CCOCC2)cc1 [Luminespib] (partner 0.01 µM) : 0.86
